- SYSTEM: S6K1 (Homo sapiens, UniProt P23443, T412E)
- Sequence (P23443 1-421 T412E limits assumed): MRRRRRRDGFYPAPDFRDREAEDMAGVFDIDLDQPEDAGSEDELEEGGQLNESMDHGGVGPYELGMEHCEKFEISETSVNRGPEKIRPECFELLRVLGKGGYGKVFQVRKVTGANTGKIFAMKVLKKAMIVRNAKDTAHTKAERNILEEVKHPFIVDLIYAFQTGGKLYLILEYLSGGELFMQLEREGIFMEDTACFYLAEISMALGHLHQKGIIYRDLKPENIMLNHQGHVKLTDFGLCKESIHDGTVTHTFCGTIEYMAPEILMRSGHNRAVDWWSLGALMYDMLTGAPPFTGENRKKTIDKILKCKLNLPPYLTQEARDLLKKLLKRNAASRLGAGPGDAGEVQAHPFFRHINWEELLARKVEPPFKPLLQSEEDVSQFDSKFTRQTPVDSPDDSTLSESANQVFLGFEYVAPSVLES
- ASSAY REMARKS: IC50 determination, biochemical kinase assay
- APPLIED CONDITIONS: not in the presence of VHL
Reported IC50 values for the following molecules.
Kindly answer with a numeric value in nM, unit omitted.

Req: Output measured IC50 for this item: Cc1ccc(F)c(S(=O)(=O)Nc2ccc(-c3nc(OC[C@H]4CN(CCOCCOCCOCC(=O)NCCNc5cccc6c5C(=O)N(C5CCC(=O)NC5=O)C6=O)CCO4)c4cn[nH]c4n3)cc2)c1 (stereo partly shown)
Resp: 240

Req: Return the recorded IC50 value; entry: COc1ccc(Cl)c(S(=O)(=O)Nc2ccc(-c3nc(OC[C@H]4CNCCO4)c4c(C)n[nH]c4n3)cc2)c1 [290-R, reference compound]
Resp: 10

Next, consider the following molecule.
Req: Please look at this molecule and report its IC50: Cc1ccc(F)c(S(=O)(=O)Nc2ccc(-c3nc(OC[C@H]4CNCCO4)c4cn[nH]c4n3)cc2)c1 [308-R, reference compound]
Resp: 1

----------
- SYSTEM: SGK3 (Homo sapiens, UniProt Q96BR1)
- Sequence (Q96BR1 whole entry): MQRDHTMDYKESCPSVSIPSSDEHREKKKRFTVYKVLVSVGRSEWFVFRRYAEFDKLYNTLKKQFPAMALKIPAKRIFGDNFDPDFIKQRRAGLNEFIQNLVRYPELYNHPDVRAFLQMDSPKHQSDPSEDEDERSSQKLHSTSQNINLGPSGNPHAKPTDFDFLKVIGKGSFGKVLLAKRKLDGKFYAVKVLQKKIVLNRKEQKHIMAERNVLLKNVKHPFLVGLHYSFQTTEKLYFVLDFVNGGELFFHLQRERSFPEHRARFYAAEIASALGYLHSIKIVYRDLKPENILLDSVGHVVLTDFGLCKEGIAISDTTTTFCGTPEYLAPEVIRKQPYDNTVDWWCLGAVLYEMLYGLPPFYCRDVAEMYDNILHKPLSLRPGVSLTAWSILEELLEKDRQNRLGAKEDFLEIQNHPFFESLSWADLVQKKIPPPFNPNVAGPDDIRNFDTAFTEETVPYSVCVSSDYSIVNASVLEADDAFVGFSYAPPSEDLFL
- ASSAY REMARKS: SGK3 degradation in HEK293 cells, immunoblot
- Assay type: cell-based
- Set-up: reduced endogenous SGK isoform or S6K1 expression when administered to HEK293 cells for 48 h; endogenous in cells; host or cells: HEK293
- APPLIED CONDITIONS: HEK293, 48 h, 0.1 μM, Figure 2
OBSERVED PROPERTY: remaining activity at 0.1 µM

Req: Give remaining activity at 0.1 µM for the following compound: Cc1ccc(F)c(S(=O)(=O)Nc2ccc(-c3nc(OC[C@H]4CN(CCOCCOCC(=O)N[C@H](C(=O)N5C[C@H](O)C[C@H]5C(=O)NCc5ccc(-c6scnc6C)cc5)C(C)(C)C)CCO4)c4cn[nH]c4n3)cc2)c1
Resp: 92%

More entries:
Req: Kindly indicate its recorded remaining activity at 0.1 µM. Item: Cc1ccc(F)c(S(=O)(=O)Nc2ccc(-c3nc(OC[C@H]4CN(CCCCCCOCCOCCOCCOCC(=O)N[C@H](C(=O)N5C[C@H](O)C[C@H]5C(=O)NCc5ccc(-c6scnc6C)cc5)C(C)(C)C)CCO4)c4cn[nH]c4n3)cc2)c1
Resp: 40%

Req: # return recorded remaining activity at 0.1 µM for entry Cc1ccc(F)c(S(=O)(=O)Nc2ccc(-c3nc(OC[C@H]4CN(CCOCCOCCOCC(=O)N[C@H](C(=O)N5C[C@H](O)C[C@H]5C(=O)NCc5ccc(-c6scnc6C)cc5)C(C)(C)C)CCO4)c4cn[nH]c4n3)cc2)c1
Resp: 70%

Req: Give remaining activity at 0.1 µM for the following compound: Cc1ccc(F)c(S(=O)(=O)Nc2ccc(-c3nc(OC[C@H]4CN(CCOCCOCCOCCOCC(=O)N[C@H](C(=O)N5C[C@H](O)C[C@H]5C(=O)NCc5ccc(-c6scnc6C)cc5)C(C)(C)C)CCO4)c4cn[nH]c4n3)cc2)c1
Resp: 71%

----------
Listed here are molecules together with their documented pIC50.
- SYSTEM: S6K1 (Homo sapiens, UniProt P23443, T412E)
- ASSAY REMARKS: IC50 determination, biochemical kinase assay
- APPLIED CONDITIONS: not in the presence of VHL
pIC50 here: minus log base 10 of the concentration, concentration in moles per litre.

Here's what some known entries look like.
Req: Look up and state reported pIC50 for COc1ccc(Cl)c(S(=O)(=O)Nc2ccc(-c3nc(OC[C@H]4CN(CCOCCOCCOCC(=O)NCCNc5cccc6c5C(=O)N(C5CCC(=O)NC5=O)C6=O)CCO4)c4c(C)n[nH]c4n3)cc2)c1 (stereo partly shown)
Resp: 6.72

Req: Provide measured pIC50 value, entry: Cc1ccc(F)c(S(=O)(=O)Nc2ccc(-c3nc(OC[C@H]4CN(CCOCCOCCOCC(=O)N[C@H](C(=O)N5C[C@H](O)C[C@H]5C(=O)NCc5ccc(-c6scnc6C)cc5)C(C)(C)C)CCO4)c4cn[nH]c4n3)cc2)c1
Resp: 6.80

Turning now to a further record.
Req: Quick one: give measured pIC50 for Cc1ccc(F)c(S(=O)(=O)Nc2ccc(-c3nc(OC[C@H]4CN(CCCCCCOCCOCCOCC(=O)N[C@H](C(=O)N5C[C@H](O)C[C@H]5C(=O)NCc5ccc(-c6scnc6C)cc5)C(C)(C)C)CCO4)c4cn[nH]c4n3)cc2)c1
Resp: 5.74

----------
- SYSTEM: SmMLCK (Homo sapiens)
- Sequence (Q15746 923-1914): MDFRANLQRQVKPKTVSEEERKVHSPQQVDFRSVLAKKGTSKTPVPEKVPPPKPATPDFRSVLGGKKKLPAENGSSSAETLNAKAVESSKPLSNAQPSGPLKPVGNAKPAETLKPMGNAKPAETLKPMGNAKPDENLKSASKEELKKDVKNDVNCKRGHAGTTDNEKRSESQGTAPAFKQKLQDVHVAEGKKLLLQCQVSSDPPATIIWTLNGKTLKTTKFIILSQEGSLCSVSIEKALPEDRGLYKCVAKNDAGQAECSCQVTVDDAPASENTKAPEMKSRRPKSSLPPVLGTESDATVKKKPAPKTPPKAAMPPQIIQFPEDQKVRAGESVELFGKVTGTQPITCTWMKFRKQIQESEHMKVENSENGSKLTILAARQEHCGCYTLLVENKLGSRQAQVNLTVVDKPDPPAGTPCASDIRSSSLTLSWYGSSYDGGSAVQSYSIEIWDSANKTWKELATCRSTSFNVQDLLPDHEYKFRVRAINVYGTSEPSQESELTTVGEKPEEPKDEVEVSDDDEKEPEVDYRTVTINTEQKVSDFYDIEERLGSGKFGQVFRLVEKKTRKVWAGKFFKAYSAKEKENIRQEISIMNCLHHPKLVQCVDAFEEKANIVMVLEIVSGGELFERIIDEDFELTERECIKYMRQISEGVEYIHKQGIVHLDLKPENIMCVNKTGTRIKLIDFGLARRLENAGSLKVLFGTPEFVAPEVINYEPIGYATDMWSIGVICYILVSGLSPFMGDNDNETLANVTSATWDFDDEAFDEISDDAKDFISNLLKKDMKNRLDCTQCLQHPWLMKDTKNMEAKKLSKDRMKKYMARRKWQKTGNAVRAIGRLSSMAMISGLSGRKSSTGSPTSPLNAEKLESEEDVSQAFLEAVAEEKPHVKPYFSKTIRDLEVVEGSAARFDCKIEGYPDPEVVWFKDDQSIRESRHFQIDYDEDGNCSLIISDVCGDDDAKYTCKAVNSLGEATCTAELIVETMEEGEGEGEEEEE
- ASSAY REMARKS: kinase profiling panel
- Assay type: biochemical
Each record here notes measured remaining activity at 1 µM.
Hi! Could you send only the number? It should be in %, unit omitted.

Field: example entries. Status: answers known.
Req: Tell me its remaining activity at 1 µM given Cc1ccc(F)c(S(=O)(=O)Nc2ccc(-c3nc(OC[C@H]4CN(CCCCCCOCCOCCOCC(=O)N[C@H](C(=O)N5C[C@@H](O)C[C@H]5C(=O)NCc5ccc(-c6scnc6C)cc5)C(C)(C)C)CCO4)c4cn[nH]c4n3)cc2)c1 [cisSGK3-PROTAC1] as the entry.
Resp: 71

Req: Look up and report measured remaining activity at 1 µM for this entry: COc1ccc(Cl)c(S(=O)(=O)Nc2ccc(-c3nc(OC[C@H]4CNCCO4)c4c(C)n[nH]c4n3)cc2)c1 [290-R, reference compound]
Resp: 23

Req: Give the reported value of remaining activity at 1 µM for this record: Cc1ccc(F)c(S(=O)(=O)Nc2ccc(-c3nc(OC[C@H]4CN(CCCCCCOCCOCCOCC(=O)N[C@H](C(=O)N5C[C@H](O)C[C@H]5C(=O)NCc5ccc(-c6scnc6C)cc5)C(C)(C)C)CCO4)c4cn[nH]c4n3)cc2)c1
Resp: 53

***
Req: Specify remaining activity at 1 µM for Cc1ccc(F)c(S(=O)(=O)Nc2ccc(-c3nc(OC[C@H]4CNCCO4)c4cn[nH]c4n3)cc2)c1 [308-R, reference compound] and stop.
Resp: 74

----------
- SYSTEM: PINK (Tribolium castaneum)
- Sequence (D6WMX4 1-570): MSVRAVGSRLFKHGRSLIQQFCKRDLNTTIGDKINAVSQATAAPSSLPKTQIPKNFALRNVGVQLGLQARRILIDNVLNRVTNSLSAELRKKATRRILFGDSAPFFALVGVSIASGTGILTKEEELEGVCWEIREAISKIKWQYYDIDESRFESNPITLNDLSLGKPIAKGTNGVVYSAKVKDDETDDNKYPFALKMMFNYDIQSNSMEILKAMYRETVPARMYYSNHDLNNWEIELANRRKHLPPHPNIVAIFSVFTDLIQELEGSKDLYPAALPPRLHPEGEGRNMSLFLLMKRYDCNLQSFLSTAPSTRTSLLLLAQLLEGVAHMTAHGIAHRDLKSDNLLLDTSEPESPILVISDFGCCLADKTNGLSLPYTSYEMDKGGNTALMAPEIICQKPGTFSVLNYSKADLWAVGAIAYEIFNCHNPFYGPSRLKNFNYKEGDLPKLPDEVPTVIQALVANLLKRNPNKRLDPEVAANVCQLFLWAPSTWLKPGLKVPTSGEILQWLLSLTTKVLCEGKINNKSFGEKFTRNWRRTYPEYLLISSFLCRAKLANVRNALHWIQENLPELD
- ASSAY REMARKS: kinase profiling panel
- Format: biochemical
- Excerpt: Protein kinase profiling against a Dundee panel of 140 protein kinases was undertaken at the International Centre for Protein Kinase Profiling. The result for each kinase was presented as a mean kinase activity of the reaction taken in triplicate relative to a control sample treated with DMSO. Assay conditions and abbreviations are available at http://www.kinase-screen.mrc.ac.uk.
Measured remaining activity at 1 µM of individual entries
Write it as a number; the unit % goes unstated.

Observe how each entry below is paired with its result.
Req: Under PINK (Tribolium castaneum), report remaining activity at 1 µM for Cc1ccc(F)c(S(=O)(=O)Nc2ccc(-c3nc(OC[C@H]4CN(CCCCCCOCCOCCOCC(=O)N[C@H](C(=O)N5C[C@H](O)C[C@H]5C(=O)NCc5ccc(-c6scnc6C)cc5)C(C)(C)C)CCO4)c4cn[nH]c4n3)cc2)c1 [SGK3-PROTAC1]
Resp: 108

Req: Lab note: record remaining activity at 1 µM of COc1ccc(Cl)c(S(=O)(=O)Nc2ccc(-c3nc(OC[C@H]4CNCCO4)c4c(C)n[nH]c4n3)cc2)c1 [290-R, reference compound] tested on PINK (Tribolium castaneum).
Resp: 99

Req: Print PINK (Tribolium castaneum) remaining activity at 1 µM for Cc1ccc(F)c(S(=O)(=O)Nc2ccc(-c3nc(OC[C@H]4CNCCO4)c4cn[nH]c4n3)cc2)c1 [308-R, reference compound] .
Resp: 119

Here's the next entry for you.
Req: State remaining activity at 1 µM on PINK (Tribolium castaneum). Entry: Cc1ccc(F)c(S(=O)(=O)Nc2ccc(-c3nc(OC[C@H]4CN(CCCCCCOCCOCCOCC(=O)N[C@H](C(=O)N5C[C@@H](O)C[C@H]5C(=O)NCc5ccc(-c6scnc6C)cc5)C(C)(C)C)CCO4)c4cn[nH]c4n3)cc2)c1 [cisSGK3-PROTAC1]
Resp: 109

// provenance: paper PMC6757289
